# reported growth; entries follow
Tested on: A498 renal
Procedure Summary: NCI-60 one-dose screen, 48 h (100 = growth as untreated, 0 = no growth, -100 = all killed)
Protocol Conditions: 10 µM unless noted
The panel holds about 83,000 compounds, 20% with a hit somewhere; the sample as a whole holds those more often.
Return type: number; implicit unit %.

I'd like to know its growth. The molecule in question is "O=S(=O)(NCCCNc1nccc(-n2cnc3ccccc32)n1)c1ccc(C(F)(F)F)cc1"
72.1

====

# reported growth; entries follow
Tested on: COLO 205 colon
Procedure Summary: NCI-60 one-dose screen, 48 h (100 = growth as untreated, 0 = no growth, -100 = all killed)
Protocol Conditions: 10 µM unless noted
The panel holds about 83,000 compounds, 20% with a hit somewhere; the sample as a whole holds those more often.
Return type: number; implicit unit %.

1. CCO/C=N/C1=C(C#N)C(c2ccc(F)cc2)c2sc3c(CC)cccc3c2O1 (stereo unspecified) ... 12.6
2. COc1c(N2CC3CCCNC3C2)c(F)cc2c(=O)c(C(=O)N/N=C/c3c[nH]c4ccccc34)cn(C3CC3)c12 (stereo unspecified) ... 107
3. O=C1[C@H]2Cc3c([nH]c4ccccc34)[C@@H](c3ccc(Br)cc3)N2C(=O)CN1C1CCN(CC2CCCCC2)CC1 ... -90.6
4. C#CCNC1CCC(c2csc(C#C)n2)=C1C (stereo unspecified) ... 105
5. COc1ccccc1-n1cc(C#N)c(N)c1C(=O)c1ccc(C)cc1 ... 95.6

Pending molecule:
I'd like to know its growth. The molecule in question is "Cc1noc(C)c1CSc1nc2ccccc2n1-c1ccccc1"
105
